assay: qHTS assay to identify small molecule agonists of the TGF-beta/Smad signaling pathway (AID 1346859); details: SBE-bla HEK293T, TGF-beta/Smad beta-lactamase reporter, 5 h; series mostly up to 76.8 µM
Records with an inconclusive call do not appear. Activity calls are given as the source filed them. The call rests on the fitted dose curve; in most records, active means well fitted activation curve with a large enough effect in the signal ratio in the repeat runs (not every such curve was filed as active); inconclusive means weak or mixed curves; inactive means flat fitted curve, though single readings scatter; the % refers to the signal ratio.
Value type: activation

// known answers, use as guide
Cc1ccc(CCn2c3c(c4cc(Cl)ccc42)CN(C)CC3)cn1: inactive
CCCCC(CC)COC(=O)c1ccc(O)cc1 (stereo unspecified): inactive
NCCCCCCNCCCCCCN: inactive
COC(=O)[C@]1(C)CCC[C@@]2(C)[C@H]1CC=C1C=C(C(C)C)CC[C@@H]12: inactive
NC(=O)c1nc(-c2cccc(-c3cc(F)ccc3OCC(F)(F)C(F)(F)F)c2)n[nH]1: inactive

Alright, here's another molecule for you.
Measured activation of CC(COC(=O)c1ccccc1)OC(=O)c1ccccc1 (stereo unspecified) : inactive

All values here come from PubChem BioAssay (Tox21).
